Molecular target: Beta-2 adrenergic receptor (Homo sapiens) (UniProt P07550)
Sequence (P07550 whole entry, looked up): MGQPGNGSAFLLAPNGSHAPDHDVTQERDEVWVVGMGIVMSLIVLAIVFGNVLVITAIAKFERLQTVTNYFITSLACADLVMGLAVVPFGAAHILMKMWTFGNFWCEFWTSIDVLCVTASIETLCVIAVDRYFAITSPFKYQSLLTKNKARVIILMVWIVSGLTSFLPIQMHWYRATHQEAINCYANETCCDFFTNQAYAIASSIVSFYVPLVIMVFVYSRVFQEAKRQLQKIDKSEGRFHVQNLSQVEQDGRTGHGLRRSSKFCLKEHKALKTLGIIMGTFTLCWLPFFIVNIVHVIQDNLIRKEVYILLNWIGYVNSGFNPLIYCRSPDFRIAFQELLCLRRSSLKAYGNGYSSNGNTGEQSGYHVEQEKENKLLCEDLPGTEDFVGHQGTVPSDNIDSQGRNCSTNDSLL
Test: qHTS assay of beta-arrestin-biased ligands of beta2-adrenergic receptor: Hit Validation
Conditions: cell-based beta-arrestin recruitment to beta2AR; activation; series mostly up to 46.1 µM
In all, about 1,200 compounds went through this assay and about 15 (1%) were called active. Another 7% or so got no clear call; they are omitted. Calls follow the shape of the dose curve; as a rule, active = well fitted activation curve with a large enough effect; inconclusive = small, poorly fitted or top-dose-only effect; inactive = flat fitted curve, though single readings scatter. The entries come from a sample that favours actives as a whole.
Possible outcomes: active, inactive

compound | experimentalSystem | classAssignment
N#CC[C@H](Cc1ccccc1)N1CC[C@@H](O)CCC1=O | Beta-2 adrenergic receptor (Homo sapiens) (UniProt P07550) | inactive
CCC(NC(C)C)C(O)c1ccc(O)c2[nH]c(=O)ccc12 (stereo unspecified) | Beta-2 adrenergic receptor (Homo sapiens) (UniProt P07550) | active
COc1ccc(C2=NN(C(=O)/C=C/c3ccccc3)C(c3ccccc3)C2)c(OC(C)=O)c1 (stereo unspecified) | Beta-2 adrenergic receptor (Homo sapiens) (UniProt P07550) | inactive
O=C(Oc1c(CN2CCOCC2)cc(Cl)c2cccnc12)c1ccccc1Br | Beta-2 adrenergic receptor (Homo sapiens) (UniProt P07550) | inactive
Cc1cc(-c2n[nH]c(=S)n2/N=C/C(Cl)=C/c2ccccc2)n[nH]1 | Beta-2 adrenergic receptor (Homo sapiens) (UniProt P07550) | inactive
COc1ccc(Cl)cc1C(Nc1cccnc1)c1ccc2cccnc2c1O (stereo unspecified) | Beta-2 adrenergic receptor (Homo sapiens) (UniProt P07550) | active
CCNC(=S)N/N=C/c1sccc1C | Beta-2 adrenergic receptor (Homo sapiens) (UniProt P07550) | inactive
CCCC(=O)NC(c1ccc(OC)cc1)c1ccc2cccnc2c1O (stereo unspecified) | Beta-2 adrenergic receptor (Homo sapiens) (UniProt P07550) | active
CC(=O)/C(=N\Nc1ccc(Cl)cc1Cl)Sc1cccc2cccnc12 | Beta-2 adrenergic receptor (Homo sapiens) (UniProt P07550) | inactive
CC(=O)Oc1ccc2cc(-c3ccccc3)c(=O)oc2c1 | Beta-2 adrenergic receptor (Homo sapiens) (UniProt P07550) | inactive
COC(=O)C1=C(C)NC(=S)NC1c1ccc(-c2cc(Cl)ccc2Cl)o1 (stereo unspecified) | Beta-2 adrenergic receptor (Homo sapiens) (UniProt P07550) | inactive
COc1cccc(NC(=S)N/N=C2\CC(C)(C)Oc3ccc(O)cc32)c1 | Beta-2 adrenergic receptor (Homo sapiens) (UniProt P07550) | inactive
O=S1(=O)Nc2c(ccc3cccnc23)-c2ccccc21 | Beta-2 adrenergic receptor (Homo sapiens) (UniProt P07550) | inactive
CCOc1ccc2nc(NC(=S)N(C)C)sc2c1 | Beta-2 adrenergic receptor (Homo sapiens) (UniProt P07550) | inactive
C/C(CS(=O)(=O)c1ccc(Cl)c(Cl)c1)=N/NC(N)=S | Beta-2 adrenergic receptor (Homo sapiens) (UniProt P07550) | inactive
CCCC(=O)NC(c1ccccc1OC)c1ccc2cccnc2c1O (stereo unspecified) | Beta-2 adrenergic receptor (Homo sapiens) (UniProt P07550) | inactive
CCOc1ccccc1C1C2CCCCC2(O)CCN1C(=O)c1cccs1 (stereo unspecified) | Beta-2 adrenergic receptor (Homo sapiens) (UniProt P07550) | inactive
CC(=O)N(c1ccccc1)C(C)c1nc(C#N)c(C#N)nc1C (stereo unspecified) | Beta-2 adrenergic receptor (Homo sapiens) (UniProt P07550) | inactive
CNC(=S)N/N=C(\C)c1ccccc1 | Beta-2 adrenergic receptor (Homo sapiens) (UniProt P07550) | inactive
Cc1ccc(CN2CCSCC2)c(C)c1 | Beta-2 adrenergic receptor (Homo sapiens) (UniProt P07550) | inactive
O=c1ccc(S(=O)(=O)N2CCCC2)c[nH]1 | Beta-2 adrenergic receptor (Homo sapiens) (UniProt P07550) | inactive
Clc1cccc(Cl)c1C1Nc2cccc3cccc(c23)N1 | Beta-2 adrenergic receptor (Homo sapiens) (UniProt P07550) | inactive
CC1S/C(=N/N=C2CCCCC2)NC1=O (stereo unspecified) | Beta-2 adrenergic receptor (Homo sapiens) (UniProt P07550) | inactive
CCOC(=O)c1cccc(NC(=O)c2cncc(Br)c2)c1 | Beta-2 adrenergic receptor (Homo sapiens) (UniProt P07550) | inactive
COc1ccccc1NS(=O)(=O)c1cc(NC(=O)CNC(=O)c2ccc(C)s2)ccc1Cl | Beta-2 adrenergic receptor (Homo sapiens) (UniProt P07550) | inactive
COc1ccccc1CN1C[C@@H]2C[C@@H](c3ccc4nsnc4c3)N3CCC[C@@]23C1=O | Beta-2 adrenergic receptor (Homo sapiens) (UniProt P07550) | inactive
